Data origin: PubChem BioAssay (NCI)

- System: OVCAR-8 ovarian
- protocol text: NCI tumour cell line growth inhibition, 48 h
We begin with a simple list: items and their reported TGI.

- chemical string: "C1C[OH+]CCNCC[OH+]CC[OH+]CCN1.[Cl-].[Pt+4]"
  TGI: "> 100 µM"
- chemical string: "CN(NC(=O)c1cccs1)C1=NCCCN1"
  TGI: "> 100 µM"
- chemical string: "COC(=O)[C@@H]1CCCN1CCN1CCC[C@H]1C(=O)OC"
  TGI: "> 100 µM"
- chemical string: "CC(=O)O[C@H]1CC[C@@]2(C)C(=CC[C@H]3[C@@H]4C[C@H](N5CCCC5)[C@H](OC(C)=O)[C@@]4(C)CC[C@@H]32)C1"
  TGI: "> 100 µM"
- chemical string: "CCCCOC(=O)NC(=O)c1cn(CCCOC(=O)NCCCCCCNC(=O)OCCCn2cc(C(=O)NC(=O)OCCCC)c(=O)[nH]c2=O)c(=O)[nH]c1=O"
  TGI: "> 100 µM"

Now consider the entry below.
For COc1cc(C)c2c(c1C)OC(=O)c1c(C)c(Cl)c(O)c(C=O)c1O2 on OVCAR-8 ovarian, measured TGI was 27.4 µM

====

- Test system: HCT-116 colon
- protocol text: NCI tumour cell line growth inhibition, 48 h
We begin with a simple list: items and their reported TGI.

- molecule: "CCCCCC(=O)NC(=S)Nc1nn[nH]n1"
  observed property: "TGI"
  observed value: "> 100 µM"
- molecule: "CCOC(=O)CNC(=O)c1ccccc1Nc1ccnc(C(F)(F)F)c1"
  observed property: "TGI"
  observed value: "> 69.8 µM"

Now consider the entry below.
Consider C[n+]1cc(C(O)c2ccc3c(c2)OCO3)c2ccccc2c1 (stereo not drawn) . Its measured TGI is > 100 µM

====

We begin with a simple list: items and their reported TGI.
- Test system: HS 578T breast
- protocol text: NCI tumour cell line growth inhibition, 48 h

- compound: "CCOC(=O)c1ccc(N2C(=S)N(C(=O)c3ccccc3)C(=Nc3ccccc3)C2=Nc2ccccc2)cc1"
  TGI: "> 100 µM"
- compound: "Cc1cn(C2CC(n3cc(Cn4cc(Br)c(=O)[nH]c4=O)nn3)C(CO)O2)c(=O)[nH]c1=O (stereo not drawn)"
  TGI: "> 100 µM"

Consider COc1ccc(-c2ccc(/C=N/n3c(C)n[nH]c3=S)o2)c([N+](=O)[O-])c1 . Its measured TGI is > 100 µM

====

We begin with a simple list: items and their reported TGI.
- Tested on: ACHN renal
- protocol text: NCI tumour cell line growth inhibition, 48 h
Field format: number, assumed µM, no unit text.

- compound: "COc1ccc2c(c1)C(C)Cc1c(ncnc1-n1c(C)nc3ccccc31)N2C (centres undefined)"
  observed property: "TGI"
  observed value: 23.1

Consider Cc1c(C2=C(Br)C(=O)N(C)C2=O)c(=O)n(C)c(=O)n1C . Its measured TGI is 94.3

Consider CC(=O)c1ccc2c3c1[C@@H]1O[C@@H]1c1cccc(c1-3)[C@@H]1O[C@H]21 . Its measured TGI is 37.4

Consider Cc1cc(N/N=C/c2nc(-c3ccc(Br)cc3)oc2C)c2cc(Br)ccc2n1 . Its measured TGI is 8.05

====

- Test system: M14 melanoma
- protocol text: NCI tumour cell line growth inhibition, 48 h
We begin with a simple list: items and their reported TGI.

- molecule: "Nc1cccc(Nc2nc3ccccc3nc2NS(=O)(=O)c2ccccc2)c1"
  observed value: "71.8 µM"
- molecule: "CCOC(=O)/C=C(/C(=O)OCC)n1ccc(N)nc1=O"
  observed value: "> 100 µM"
- molecule: "CCC(C#N)NC(=O)NC(C#N)CC (stereo unspecified)"
  observed value: "> 100 µM"
- molecule: "Cn1cc(C2=C(c3cn(CCCCCN)c4ccccc34)C(=O)NC2=O)c2ccccc21"
  observed value: "> 25 µM"
- molecule: "O=c1[nH]nc(Cc2ccc([N+](=O)[O-])cc2)n1CCO"
  observed value: "> 100 µM"

Now consider the entry below.
Consider COC(=O)N/N=C(\C)C(CN1CCCCC1)C(C1=C(O)c2ccccc2OC1)c1ccccc1 (stereo unspecified) . Its measured TGI is > 100 µM

====

- System: NCI/ADR-RES ovarian
- protocol text: NCI tumour cell line growth inhibition, 48 h
observed property: TGI

- compound: "CCc1ccccc1NC(=O)c1sc2nc3c(cc2c1N)C(=O)CCC3"
  TGI: "41.1 µM"

Consider CC(C)OC(=O)NNc1cc(Cl)ccc1Cl . Its measured TGI is > 100 µM

Consider CC(=O)N1N=C(c2ccc3ccccc3c2O)CC1C(=O)c1ccco1 (configuration not stated) . Its measured TGI is 57.8 µM

====

- Tested on: T-47D breast
- protocol text: NCI tumour cell line growth inhibition, 48 h
observed property: TGI

- compound: "OCC1OC(n2cnc3c(Cl)nc(Nc4ccccc4)nc32)CC1O (centres undefined)"
  TGI: "> 100 µM"

Now consider the entry below.
For O=c1c2ncn(COCCCl)c2n(-c2ccccc2)c(=S)n1-c1ccccc1 on T-47D breast, measured TGI was > 100 µM

====

- Tested on: MDA-MB-231 breast
- protocol text: NCI tumour cell line growth inhibition, 48 h
observed property: TGI

- compound: "CCCCCC(=O)NC(=S)Nc1nn[nH]n1"
  assay target: "MDA-MB-231 breast"
  TGI: "> 100 µM"
- compound: "C[C@]12CC[C@H](O)C[C@H]1CC[C@@H]1[C@@H]2CC[C@]2(C)[C@@H](C3=CC(=O)OC3)CC[C@]12O"
  assay target: "MDA-MB-231 breast"
  TGI: "> 62.2 µM"

Now consider the entry below.
Consider Cc1cn(C(Cc2ccccc2)OCCO)c(=O)[nH]c1=O (stereo not drawn) . Its measured TGI is > 100 µM

====

We begin with a simple list: items and their reported TGI.
- Tested on: SK-MEL-5 melanoma
- protocol text: NCI tumour cell line growth inhibition, 48 h

Would you please look over these solved cases?
- compound: "COC(=O)OCC1OC(N2C(=O)NC(=O)C(Br)C2N=[N+]=[N-])CC1OC(=O)OC (centres undefined)"
  TGI: "> 100 µM"
- compound: "COc1ccc2c(c1)C(C)Cc1c(ncnc1-n1c(C)nc3ccccc31)N2C (centres undefined)"
  TGI: "13 µM"
- compound: "CC(=O)O[C@H](C[C@H](C(C)C)N(C)C(=O)[C@@H](NC(=O)[C@H]1CCCCN1C)C(C)C)c1nc(C(=O)N[C@@H](Cc2ccccc2)C[C@H](C)C(=O)O)c(CCOCc2ccccc2)s1"
  TGI: "0.00159 µM"

For CC(=O)Nc1cc2c(s1)CCC1CC(=O)NN=C21 (centres undefined) on SK-MEL-5 melanoma, measured TGI was > 100 µM

====

- Tested on: HCC-2998 colon
- protocol text: NCI tumour cell line growth inhibition, 48 h
We begin with a simple list: items and their reported TGI.

- molecule: "COc1ccc(OC)c2c(/C=C/c3ccc(N(C)C)cc3)ccnc12"
  TGI: "> 10 µM"
- molecule: "CCCC(C)NC1=C(NC(C)=O)C(=O)c2ccccc2C1=O (stereo unspecified)"
  TGI: "> 100 µM"
- molecule: "CC1=COC(C)(C=C(C#N)C#N)CC1 (stereo unspecified)"
  TGI: "> 100 µM"
- molecule: "Cc1cc(C2CC(O)C(CO)O2)cc2c(=O)[nH]c(N)nc12 (stereo unspecified)"
  TGI: "> 100 µM"
- molecule: "CC12CCCCC1(C)C2Sc1ccccc1 (stereo unspecified)"
  TGI: "> 100 µM"

Now consider the entry below.
For O=C(NC(Cc1ccc(I)cc1)C(=O)O)c1ccc(Br)cc1 (stereo unspecified) on HCC-2998 colon, measured TGI was > 100 µM

====

We begin with a simple list: items and their reported TGI.
- System: DU-145 prostate
- protocol text: NCI tumour cell line growth inhibition, 48 h

Would you please look over these solved cases?
- molecule: "CCC1(C)N=C(c2cnccn2)NN1c1ccc(Cl)cc1 (stereo not given)"
  observed property: "TGI"
  observed value: "> 100 µM"
- molecule: "Cn1cc(C2=C(c3cn(CCCCCN)c4ccccc34)C(=O)NC2=O)c2ccccc21"
  observed property: "TGI"
  observed value: "> 25 µM"
- molecule: "COc1ccc2c(c1)[C@@]13CCCC[C@H]1[C@@H](C2)N(C)CC3=O"
  observed property: "TGI"
  observed value: "45.2 µM"
- molecule: "Nc1c(Cl)ncnc1N[C@@H]1C[C@H]1CO"
  observed property: "TGI"
  observed value: "> 100 µM"

Now consider the entry below.
Consider COc1cc2c(cc1O)C1Cc3ccc(OC)c(O)c3C(C2)N1C (stereo not given) . Its measured TGI is > 100 µM
